IC50 values for cGMP-dependent 3',5'-cyclic phosphodiesterase (Homo sapiens), compiled from several publications.

Solved entries:
# molecule, study-target, assay-value
records = [
    ("CC(C)CCn1c2c(c3c(O)cc(O)cc31)CCn1c-2nc2ccccc2c1=O", "cGMP-dependent 3',5'-cyclic phosphodiesterase (Homo sapiens)", "> 500 µM"),
    ("Cc1nc2c(ccc3c2c(=O)n(C)c(=O)n3CC(C)C)[nH]1", "cGMP-dependent 3',5'-cyclic phosphodiesterase (Homo sapiens)", "> 25 µM"),
    ("OCC1CCN(c2ncccc2Oc2ccc(Nc3nc4ccccc4[nH]3)cc2)CC1", "cGMP-dependent 3',5'-cyclic phosphodiesterase (Homo sapiens)", "> 10 µM"),
    ("O=C(O)c1ccc(-c2c(/C=C/c3ccc4ccccc4n3)nc3c(N4CCOCC4)ccnn23)cc1", "cGMP-dependent 3',5'-cyclic phosphodiesterase (Homo sapiens)", "5.9 µM"),
    ("COc1cc2c(cc1OC1CCCC1)CN(S(=O)(=O)c1ccc(NC(C)=O)cc1)CC2", "cGMP-dependent 3',5'-cyclic phosphodiesterase (Homo sapiens)", "> 100 µM"),
    ("CC(C)Cn1c(=O)n(C)c(=O)c2nc[nH]c21", "cGMP-dependent 3',5'-cyclic phosphodiesterase (Homo sapiens)", "15 µM"),
    ("O=c1cc(N2CCOCC2)oc2c(-c3ccccc3)cccc12", "cGMP-dependent 3',5'-cyclic phosphodiesterase (Homo sapiens)", "40 µM"),
    ("O=c1[nH]c(Cc2ccccc2)nc2c1ncn2CCc1ccccc1", "cGMP-dependent 3',5'-cyclic phosphodiesterase (Homo sapiens)", "7.27 µM"),
    ("CC(C)CCn1c(=O)c2cc3nc[nH]c3cc2n(CC(C)C)c1=O", "cGMP-dependent 3',5'-cyclic phosphodiesterase (Homo sapiens)", "20 µM"),
]

Measured IC50 for this entry CCCCC(CC)Cn1cnc2c(=O)[nH]c(Cc3ccc(OCc4ccccc4)cc3)nc21 (stereo not given) on cGMP-dependent 3',5'-cyclic phosphodiesterase (Homo sapiens): 0.072 µM

###

IC50 values for cGMP-dependent 3',5'-cyclic phosphodiesterase (Homo sapiens, UniProt O00408), compiled from several publications.
IC50 less than 10 µM is T; IC50 greater than or equal to 10 µM is F.

# molecule, study-target, class-assignment
data = [
    ("COc1ccc(C2=Nc3c(C(C)(C)C)nn(CCO)c3C(=O)NC2)cc1-c1cnc(N2CCCC2)nc1", "cGMP-dependent 3',5'-cyclic phosphodiesterase (Homo sapiens, UniProt O00408)", "T"),
    ("COc1ccc(/C=N/N(C)C(=O)c2ccccc2OC)cc1OC", "cGMP-dependent 3',5'-cyclic phosphodiesterase (Homo sapiens, UniProt O00408)", "F"),
    ("O=c1[nH]c(Cc2ccc(OCc3ccccc3)cc2)nc2c1ncn2CCc1ccccc1", "cGMP-dependent 3',5'-cyclic phosphodiesterase (Homo sapiens, UniProt O00408)", "T"),
    ("CC(C)Cn1c(=O)n(C)c(=O)c2c3nc(C(C)(C)C)[nH]c3ccc21", "cGMP-dependent 3',5'-cyclic phosphodiesterase (Homo sapiens, UniProt O00408)", "F"),
]

Q. Quick check: IC50 of CN(C(=O)CCCOc1ccc2nc3[nH]c(=O)[nH]c3cc2c1)C1CCCCC1 under 10 µM?
A. T

Q. Quick check: IC50 of Cc1ncn(-c2nc3c(C(=O)N[C@@H](c4ccc(OC(F)(F)F)cc4)C(C)(C)O)cnn3cc2C)n1 under 10 µM?
A. T

###

IC50 values for cGMP-dependent 3',5'-cyclic phosphodiesterase (Homo sapiens), compiled from several publications.
Class boundaries, taken from values of IC50, are as follows: low end = under 0.02 µM, middle = from 0.02 µM up to 6 µM, high end = 6 µM and over

# molecule, class-assignment
records = [
    ("COc1cc([C@@H](C)C(=O)N2CC[C@@]3(COc4cc(-c5ncccn5)c(C)nc4N3)C2)c(F)cn1", "high end"),
    ("OCCOc1ccc2[nH]c3nc(O)nc-3cc2c1", "high end"),
    ("Cn1c(O)nc2nc3ccc(OCCCC(=O)O)cc3cc21", "high end"),
    ("CC(C)Cn1c(=O)n(C)c(=O)c2c1ncn2Cc1ccccc1", "high end"),
    ("CC(O)(C1CCN(c2nccnc2Oc2ccc(Nc3nc4ccccc4s3)cc2)CC1)C(F)(F)F (stereo unspecified)", "high end"),
    ("CCC(CC)c1nn(CCO)c2c1N=C(c1ccc(OC)c(OC)c1)CNC2=O", "middle"),
    ("OCCCOc1ccc2[nH]c3nc(O)nc-3cc2c1", "high end"),
    ("OCC1CCN(c2cnccc2Oc2ccc(Nc3nc4ccccc4[nH]3)cc2)CC1", "high end"),
]

Continue with the next molecule.
Q. For the record Oc1nc2cc3cc(OCCCCc4nnnn4C4CCCCC4)ccc3[nH]c-2n1 , report the class its IC50 corresponds to.
A. high end

###

IC50 values for cGMP-dependent 3',5'-cyclic phosphodiesterase (Homo sapiens, UniProt O00408), compiled from several publications.
One number for each entry, in µM.

Solved entries:
# molecule, endpoint-name, assay-value
rows = [
    ("O=c1[nH]c(Cc2ccccc2)nc2c1ncn2Cc1ccc2ccccc2c1", "IC50", 3.99),
    ("COC(=O)CN(C(=O)CCCOc1ccc2[nH]c3nc(O)nc-3cc2c1)C1CCCCC1", "IC50", 5.5),
    ("O=C(CCCOc1ccc2nc3[nH]c(=O)[nH]c3cc2c1)N1CCOCC1", "IC50", 40),
    ("COc1ccc(C2=Nc3c(C(C)(C)C)nn(CCO)c3C(=O)NC2)cc1-c1cnc(N(C)C)cc1C", "IC50", 0.0013),
    ("COc1ccc2nnc3c(C)nc(-c4cc(OC(C)C)ccc4F)n3c2n1", "IC50", 0.102),
]

Hi there! I need IC50 for each item below, if you can.
1. O=C(O)CCCCCOc1ccc2[nH]c3nc(O)nc-3cc2c1
2. COc1ccc(C2=Nc3c(C(C)(C)C)nn(CCCO)c3C(=O)NC2)cc1-c1ccc(C(=O)O)cc1
3. COc1ccc(C2=Nc3c(C(C)(C)C)nn(CCCO)c3C(=O)NC2)cc1-c1cnn(C)c1
4. CN(C(=O)CCCCOc1ccc2nc3[nH]c(=O)[nH]c3cc2c1)C1CCCCCC1
5. COc1ccc(CCn2cnc3c(=O)[nH]c(Cc4ccccc4)nc32)cc1OC

A.
1. 7
2. 0.04
3. 0.036
4. 5
5. 40.3

Hi there! I need IC50 for each item below, if you can.
1. CN(C(=O)CCCCCOc1ccc2nc3[nH]c(=O)[nH]c3cc2c1)C1CCCCC1
2. CC(O)c1ccc(-c2c(-c3nn(C)c4ncnc(N5CCC5)c34)cnn2C)cc1 (stereo not given)
3. COc1cc(F)cc2c1nnc1c(C)nc(-c3cccnc3C)n12
4. CCC(CC)c1nn(CCO)c2c1N=C(c1ccc(-n3ccnc3C)cc1)CNC2=O
5. CCCCCCn1cnc2c(=O)[nH]c(Cc3ccc(OC)cc3)nc21
6. CCOC(=O)c1sc(Nc2nc(NCc3ccc(S(N)(=O)=O)cc3)c3c(ncn3CC)n2)nc1C
7. COc1ccc2cncc(Cc3nc4c([nH]3)c(=O)n(C)c(=O)n4CC(C)C)c2c1

A.
1. 7
2. 0.042
3. 1.27
4. 0.054
5. 3.79
6. 0.95
7. 4.6

###

pIC50 values for cGMP-dependent 3',5'-cyclic phosphodiesterase (Homo sapiens, UniProt O00408), compiled from several publications.
pIC50: −log10 of the molar value.
Where pIC50 equals or exceeds 5, the correct label is condition met; where it does not, the label is condition not met.

# structure-notation, class-assignment
data = [
    ("Cc1nc2c([nH]1)c(=O)n(C)c(=O)n2CC(C)C", "condition not met"),
    ("COc1ccc(-c2cc(C3=Nc4c(C(C)(C)C)nn(CCO)c4C(=O)NC3)ccc2OC)c(OC)c1", "condition met"),
    ("O=C(CCCOc1ccc2nc3[nH]c(=O)[nH]c3cc2c1)NC1CCCCC1", "condition not met"),
    ("COc1ccc(C2=Nc3c(C(C)(C)C)nn(CCCO)c3C(=O)NC2)cc1-c1cnc(N(C)C)cc1C", "condition met"),
    ("N#Cc1ccc(Oc2ccc3c(c2)COB3O)cc1", "condition met"),
    ("COc1ccc2nnc3c(C)nc(-c4cc(Cl)ccc4Cl)n3c2n1", "condition met"),
]

Q. Does pIC50 meet or surpass 5 for OCC1CCN(c2ccccc2Oc2ccc(Nc3nc4ccccc4[nH]3)cc2)CC1 ?
A. condition not met

Q. Does pIC50 meet or surpass 5 for CCn1ncc(-c2nc3c(O[C@H]4CCN(C(=O)C5CCOCC5)C4)ncnc3n2C)c1C ?
A. condition not met

###

log10(IC50) values for cGMP-dependent 3',5'-cyclic phosphodiesterase (Homo sapiens, UniProt O00408), compiled from several publications.
Scale type: logarithmic (base 10). Underlying IC50 unit: µM.

# structure-notation, log10(IC50)
rows = [
    ("Cc1nn2c(-c3c(C)nn(C)c3-c3ccc(C(F)(F)F)cc3)nc(CO)c2c(=O)[nH]1", -3.40),
    ("CCC(CC)c1nn(CCCO)c2c1N=C(c1ccc(OC)c(OC)c1)CNC2=O", -1.03),
]

Hi there! I need log10(IC50) for each item below, if you can.
1. CC(C)Cn1c(=O)n(C)c(=O)c2[nH]c(C(C)(C)C)nc21
2. COc1ccc(-c2cc(C3=Nc4c(C(C)(C)C)nn(CCCO)c4C(=O)NC3)ccc2OC)c(OC)c1
3. Cc1nn2c(-c3c(CO)nn(C)c3-c3ccc(C(F)(F)F)cc3)nc(C)c2c(=O)[nH]1
4. CCCCCCn1cnc2c(=O)[nH]c(Cc3ccc(OCc4ccccc4)cc3)nc21
5. O=c1[nH]c(Cc2ccccc2)nc2c1ncn2CCc1cccs1

A.
1: 1.76; 2: -1.85; 3: -2.16; 4: 0.59; 5: 1.23
